Overview of reported normalized growth across a group of compounds:
measurement.protocol: chemical genetic growth profiling, strain panel (AID 1159580);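 further: tested at 20 µM; growth read once vehicle control cultures reached saturation at 30 °C; 1 = growth at the plate median or of vehicle wells; lower values mean less growth of the strain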
recorded.conditions: S. cerevisiae deletion strains, growth OD, locus YNL183C, strain NPR1, active compounds read low
Screen size: about 5,500 compounds; about 2,000 (36%) were called active. Another 18% or so got no clear call; they are omitted. The list shows a part of the results.
measurement.label: normalized growth

INSERT INTO assay_data (compound, val) VALUES
  ('O=C(O)CCC(=O)Nc1ccc(S(=O)(=O)Nc2nccs2)cc1', 0.968),
  ('CN(C)N=Nc1nc[nH]c1C(N)=O', 0.986),
  ('CO[C@]12C[C@@H](COC(=O)c3cncc(Br)c3)CN(C)[C@@H]1Cc1cn(C)c3cccc2c13', 0.912),
  ('CC(CCC(=O)O)[C@H]1CCC2C3CC[C@@H]4C[C@H](O)CC[C@]4(C)C3C[C@H](O)[C@@]21C (some centres undefined)', 1),
  ('NNC(=O)c1csc(Cc2c(Cl)sc3ccc(Cl)cc23)n1', 1.03),
  ('CNC(=O)n1nc(C)c(Cc2csc3ccc(Cl)cc23)c1C', 0.896),
  ('CN1CC(CNC(=O)OCc2ccccc2)CC2c3cccc4c3c(cn4C)CC21 (centres undefined)', 0.879),
  ('COc1cc([C@@H]2c3cc4c(cc3[C@H](OC(C)=O)[C@H]3COC(=O)[C@@H]23)OCO4)cc(OC)c1OC', 0.972),
  ('C[C@H](CCC(=O)O)[C@H]1CCC2C3C(CC[C@@]21C)[C@@]1(C)CC[C@@H](O)C[C@H]1C[C@@H]3O (some centres undefined)', 0.921),
  ('C/C=C/C(=O)N(CC)c1ccccc1C', 0.975),
  ('NS(=O)(=O)c1cc2c(cc1Cl)NC(C1CC3C=CC1C3)NS2(=O)=O (centres undefined)', 0.978),
  ('COc1ccc(C(=O)NCc2csc3ccc(Cl)cc23)cc1OC', 0.999),
  ('O=C(O)c1ccccc1C(=O)Nc1ccc(S(=O)(=O)Nc2nccs2)cc1', 0.975),
  ('COC(=O)CCC(C)[C@H]1CCC2C3C(C[C@H](O)[C@@]21C)[C@@]1(C)CC[C@@H](O)C[C@H]1C[C@H]3O (some centres undefined)', 0.955);

----------
measurement.protocol: chemical genetic growth profiling, strain panel (AID 1159580)
recorded.conditions: S. cerevisiae deletion strains, growth OD, locus YPR167C, strain met16, active compounds read low
In all, about 5,500 compounds went through this assay and about 2,000 (36%) were called active. Roughly 18% stayed inconclusive and do not appear here. This is one part of the list.
// reported normalized growth for each item listed
measurement.label: normalized growth

INSERT INTO measurements (molecule, val) VALUES
  ('COC(=O)c1c(C)cc(OC(=O)c2c(C)c(Cl)c(O)c(C=O)c2O)c(C)c1O', 0.993),
  ('NC(N)=NCCC[C@@H](NC(=O)[C@@H](N)Cc1ccc(O)cc1)C(=O)O', 1.01),
  ('CC(=O)Nc1nnc(S(N)(=O)=O)s1', 0.964),
  ('COC(=O)c1c(C)cc(OC(=O)c2c(C)cc(O)c(C=O)c2O)c(C)c1O', 0.963),
  ('CN1CC(CNC(=O)OCc2ccccc2)CC2c3cccc4c3c(cn4C)CC21 (stereo not given)', 0.991);

----------
measurement.protocol: chemical genetic growth profiling, strain panel (AID 1159580)
recorded.conditions: S. cerevisiae deletion strains, growth OD, locus YNL233W, strain BNI4, active compounds read low
The campaign covered roughly 5,500 compounds. About 2,000 (36%) were called active. Inconclusive results (about 18%) are left out. Some of the results follow.
normalized growth values by entry
measurement.label: normalized growth

INSERT INTO assay_data (molecule, measurement_label, val) VALUES
  ('CC1CCC2(OC1)OC1CC3C4CCC5C[C@@H](O)CCC5(C)C4=CCC3(C)C1[C@@H]2C (stereo partly drawn)', 'normalized growth', 0.99),
  ('COC(=O)c1c(C)cc(OC(=O)c2c(C)cc(O)c(C=O)c2O)c(C)c1O', 'normalized growth', 0.982),
  ('CN(C)C(=O)Nc1ccc(Cl)c(Cl)c1', 'normalized growth', 0.97);

----------
measurement.protocol: chemical genetic growth profiling, strain panel (AID 1159580);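 further: tested at 20 µM; growth read once vehicle control cultures reached saturation at 30 °C; 1 = growth at the plate median or of vehicle wells; lower values mean less growth of the strain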
recorded.conditions: S. cerevisiae deletion strains, growth OD, locus YMR231W, strain pep5, active compounds read low
Screen size: about 5,500 compounds; about 2,000 (36%) were called active. About 18% were inconclusive and are not listed. Some of the results follow.
measurement.label: normalized growth

INSERT INTO results (compound, val) VALUES
  ('COc1c2ccccc2nc2occc12', 0.994),
  ('O=c1cc(-c2ccc(O)cc2)oc2cc(O)ccc12', 0.966),
  ('c1ccc2c(c1)CN1CCCC1=N2', 0.996),
  ('CC(=O)OCC(=O)[C@@]1(O)[C@H](OC(C)=O)CC2C3CCC4=CC(=O)C=C[C@]4(C)[C@@]3(F)[C@@H](O)C[C@@]21C (stereo partly drawn)', 1),
  ('CCCCCC1C(=O)CCC1CC(=O)OC (stereo not drawn)', 0.97),
  ('COc1c2ccoc2nc2c(OC)c(OCC(O)C(C)(C)O)ccc12 (stereo not drawn)', 1),
  ('O=c1cc(-c2ccccc2)oc2c(O)c(O)ccc12', 0.968),
  ('CC(CCC(=O)O)[C@H]1CCC2C3C[C@H](O)[C@@H]4C[C@H](O)CC[C@]4(C)C3CC[C@@]21C (stereo partly drawn)', 0.993),
  ('O=c1cc(-c2ccccc2)oc2cc(O)c(O)cc12', 0.958),
  ('CC(CCC(=O)O)[C@H]1CCC2C3C(C[C@H](O)[C@@]21C)[C@@]1(C)CC[C@@H](O)C[C@H]1C[C@H]3O (stereo partly drawn)', 1.02),
  ('COc1cc([C@@H]2c3cc4c(cc3[C@H](OC(C)=O)[C@H]3COC(=O)[C@@H]23)OCO4)cc(OC)c1OC', 1),
  ('O=c1cc(-c2cc(O)c(O)c(O)c2)oc2cc(O)cc(O)c12', 1),
  ('CN(C(=O)CN(CCO)CC(=O)N(C)C(C)(C)Cc1ccccc1)C(C)(C)Cc1ccccc1', 1.01);

----------
The reader will find reported normalized growth values listed item by item below.
measurement.protocol: chemical genetic growth profiling, strain panel (AID 1159580);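 further: tested at 20 µM; growth read once vehicle control cultures reached saturation at 30 °C; 1 = growth at the plate median or of vehicle wells; lower values mean less growth of the strain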
recorded.conditions: S. cerevisiae deletion strains, growth OD, locus YPL055C, strain LGE1, active compounds read low
Hit rate of the full screen: of about 5,500 compounds, about 2,000 (36%) were called active. Another 18% or so got no clear call; they are omitted. This is one part of the list.
measurement.label: normalized growth

INSERT INTO assay_data (compound, measurement_label, val) VALUES
  ('Cc1ccc(S(=O)(=O)Nc2ccc(C)c([N+](=O)[O-])c2)cc1', 'normalized growth', 1.01),
  ('CCN1CCC[C@H]1CNC(=O)c1c(OC)ccc(I)c1O', 'normalized growth', 0.972),
  ('CCCCS(=N)(=O)CCC(N)C(=O)O (stereo not given)', 'normalized growth', 0.999),
  ('COc1cc(C(=O)O)c2c(c1C)OC(=O)c1c(C)cc(O)c(C=O)c1O2', 'normalized growth', 0.973),
  ('CC(=O)c1ccc(-c2ccc(Cl)c(Cl)c2)o1', 'normalized growth', 0.747),
  ('CCCC(CCC)C(=O)O', 'normalized growth', 1),
  ('Cc1cc(O)c(C)c2c1C(=O)Oc1c(C)c(O)c(C(=O)O)c(C)c1O2', 'normalized growth', 1.04),
  ('CO[C@]12C[C@@H](COC(=O)c3cncc(Br)c3)CN(C)[C@@H]1Cc1cn(C)c3cccc2c13', 'normalized growth', 0.977),
  ('Cn1nccc1NS(=O)(=O)c1cccc(Cl)c1', 'normalized growth', 1),
  ('CN(C)CCOC(=O)C(c1ccccc1)C1(O)CCCC1 (stereo not given)', 'normalized growth', 1.01),
  ('CN(C)C(=O)Nc1ccc(Cl)c(Cl)c1', 'normalized growth', 0.95),
  ('N/C(=N/O)c1csc(-c2ccc(F)cc2F)n1', 'normalized growth', 0.943),
  ('COc1cc(C)c(C(=O)Oc2cc(C)c(C(=O)O)c(O)c2C)c(OC)c1C', 'normalized growth', 1.01),
  ('N[C@H](CCCCCP(=O)(O)O)C(=O)O', 'normalized growth', 0.997),
  ('Cc1c(S(=O)(=O)c2ccc(Cl)cc2)csc1S(=O)(=O)N/N=C\c1c(Cl)cccc1Cl', 'normalized growth', 0.886);

----------
measurement.protocol: chemical genetic growth profiling, strain panel (AID 1159580);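 further: tested at 20 µM; growth read once vehicle control cultures reached saturation at 30 °C; 1 = growth at the plate median or of vehicle wells; lower values mean less growth of the strain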
recorded.conditions: S. cerevisiae deletion strains, growth OD, locus YKL068W
Out of some 5,500 compounds screened, about 2,000 (36%) were called active. About 18% were inconclusive and are not listed. Cut-off read from the data, not from the text of the source: active = normalized growth mostly below about 0.91 (no sharp cut-off); inconclusive = no clear call, values can overlap the other calls; inactive = mostly above about 0.92. The list shows a part of the results.
Outcomes: 1.0 for active, 0.0 for inactive

INSERT INTO measurements (compound, class_label) VALUES
  ('CCN(CC)C(C)CN1c2ccccc2Sc2ccccc21 (stereo not given)', 0.0),
  ('CC(CCC(=O)O)[C@H]1CCC2C3CC[C@@H]4C[C@H](O)CC[C@]4(C)C3CC[C@@]21C (stereo not given in full)', 0.0),
  ('CC1=C2[C@H]3OC(=O)[C@@H](C)[C@@H]3CC[C@@]2(C)C=CC1=O', 0.0),
  ('C=C1C2CC[C@@]3(C)[C@H](c4ccoc4)OC(=O)C[C@]13O[C@H]1CC(O)C(C)(C)C(CC(=O)OC)[C@@]21C (stereo not given in full)', 0.0),
  ('CC(CN(C)C)CN1c2ccccc2Sc2ccccc21 (stereo not given)', 0.0),
  ('CC(C)CCCC(C)C1CCC2C3CC[C@H]4CCCC[C@]4(C)C3CC[C@]12C (stereo not given in full)', 0.0),
  ('COc1c(Cl)ccc(Cl)c1C(=O)O', 0.0),
  ('C=C1C2CCC3(C)C(c4ccoc4)OC(=O)CC13OC1CC(OC(C)=O)C(C)(C)C(CC(=O)OC)C12C (stereo not given)', 1.0),
  ('COC(=O)CCC(=O)O[C@H]1CCC2(C)C(CCC3C2C(=O)[C@@H](O)C2(C)C3CC3OC4(CCC(C)CO4)[C@@H](C)C32)C1 (stereo not given in full)', 0.0),
  ('C=C1[C@H]2CC[C@@]3(C)[C@H](c4ccoc4)OC(=O)C[C@]13O[C@H]1C[C@H](O)C(C)(C)[C@H](CC(=O)OC)[C@]12C', 0.0),
  ('C=C1C2CC[C@@]3(C)[C@H](c4ccoc4)OC(=O)C[C@]13O[C@H]1CC(=O)C(C)(C)C(CC(=O)OC)[C@@]21C (stereo not given in full)', 0.0),
  ('CCCCCC1C(=O)CCC1CC(=O)OC (stereo not given)', 0.0),
  ('CNCCCN1c2ccccc2CCc2ccccc21', 0.0),
  ('C=C1C2=CC(=O)O[C@@H](c3ccoc3)[C@]2(C)CCC1[C@@]1(C)C=CC(=O)C(C)(C)[C@@H]1CC(=O)OC (stereo not given in full)', 0.0),
  ('CN(C)CCC(c1ccc(Br)cc1)c1ccccn1 (stereo not given)', 0.0);
